# Tested on: SN12C
# ASSAY_TEXT: NCI tumour cell line growth inhibition, 48 h
Active and inactive are the calls of the source. Cut-off read from the data, not from the text of the source: active = GI50 up to about 1.1 µM and inactive = higher.
MEASURED_PROPERTY: GI50

// solved cases for GI50 follow
Req: State the recorded GI50 for this entry: COc1ccc(NC(=O)CC(=O)NNC(Sc2ccccc2)c2cc(/N=N/c3ccc(Br)cc3)ccc2O)cc1 (stereo unspecified)
Resp: 7.52 µM (inactive)

Req: Repeat for the following compound: Cc1cn(CCOCCOC(=O)NC(CCCNC(=N)N)C(=O)O)c(=O)[nH]c1=O (stereo unspecified)
Resp: > 100 µM (inactive)

Req: Repeat for the following compound: C=CCn1c(=O)ccn(COCCO)c1=O
Resp: > 100 µM (inactive)

Req: Repeat for the following compound: CCOC(=O)c1cc2c([N+](=O)[O-])c(NC(C)=O)ccc2s1
Resp: 92 µM (inactive)

---
Req: State the recorded GI50 for this entry: Cc1nnc(N/N=C(/C(=O)C(C#N)c2ccccc2)C(C#N)c2ccccc2)n1N (stereo unspecified)
Resp: 3.13 µM (inactive)

Req: Repeat for the following compound: Cc1cc(C)c(N[S+]([O-])c2ccc(Cl)cc2)c(C)c1 (stereo unspecified)
Resp: > 100 µM (inactive)

* * *

# System: HCC 2998
# ASSAY_TEXT: NCI tumour cell line growth inhibition, 48 h
The source made the active and inactive calls. Cut-off read from the data, not from the text of the source: active = GI50 up to about 1.1 µM and inactive = higher.
MEASURED_PROPERTY: GI50

// solved cases for GI50 follow
Req: State the recorded GI50 for this entry: N=C(N)SCc1ccc2c(c1)S(=O)(=O)c1ccccc1O2
Resp: 22.1 µM (inactive)

Req: Repeat for the following molecule: Cc1cc(SCC(=O)c2ccc(Br)cc2)cc(C)[o+]1
Resp: 25.2 µM (inactive)

Req: Repeat for the following molecule: Cc1ccc2nc(CN3CCCC(O)C3)cc(=O)n2c1 (stereo unspecified)
Resp: > 100 µM (inactive)

---
Req: State the recorded GI50 for this entry: CCCCCCC1CCC2CCCC(C)N12 (stereo unspecified)
Resp: 22.6 µM (inactive)

Req: Repeat for the following molecule: N#Cc1c(N)oc(-c2ccc([N+](=O)[O-])cc2)c1C#N
Resp: 32.7 µM (inactive)

Req: Repeat for the following molecule: CCCCCCCCCC1(N=[N+]=[N-])C(=O)c2ccccc2N(C)C1=O (stereo unspecified)
Resp: 33 µM (inactive)

* * *

# System: OVCAR-3
# ASSAY_TEXT: NCI tumour cell line growth inhibition, 48 h
Calls of active or inactive are those of the source. Cut-off read from the data, not from the text of the source: active = GI50 up to about 1.1 µM and inactive = higher.
Can you answer with just one of these options? class 1 (active), class 0 (inactive)

Req: Outcome logged for Cc1ccc(O)c(C2=CC(c3cccc(Cl)c3)SC(=N)N2)c1 (stereo not given) in this assay:
Resp: class 0

Req: Repeat for the following molecule: Cc1ccc(NC(=O)CC2C(=O)Nc3ccccc3S2(=O)=O)cc1C (stereo not given)
Resp: class 0

Req: Repeat for the following molecule: O=c1[nH]cc(C(F)(C(F)(F)F)C(F)(F)F)c(=O)[nH]1
Resp: class 0

Req: Repeat for the following molecule: C[C@@H]1C(=O)CC2C(C)(C)CCC[C@]2(C)[C@@]12CC[C@]1(C=COC1)O2 (stereo not given in full)
Resp: class 0

Now, please, on to the next molecule.
Req: Outcome logged for COc1cccc2c1/c(=C/c1ccc(N(C)C)cc1)c1cc(-c3ccccc3)[n+](C)n12 in this assay:
Resp: class 1

* * *

# Tested on: SW-620
# ASSAY_TEXT: NCI tumour cell line growth inhibition, 48 h
Active and inactive are the calls of the source. Rule as the data show it: active = GI50 up to about 1.1 µM and inactive = higher.
Can you answer with just one of these options? active, inactive

A selection of reference data follows.
Req: Outcome logged for CCCCc1ccc2[n+](c1)C(C(=O)OCC)=PC2 (stereo unspecified) in this assay:
Resp: inactive

Req: Repeat for the following compound: c1ccc2sc(C3(N4CCCCC4)CCCCCC3)cc2c1
Resp: inactive

Req: Repeat for the following compound: O=C1OC(c2ccc(Cl)cc2)=N/C1=C\c1ccccc1
Resp: inactive

Req: Repeat for the following compound: CN1C(c2ccccc2)CC(O)CC1c1ccccc1 (stereo unspecified)
Resp: inactive

Req: Repeat for the following compound: Cc1cc2c(c(C(N)=O)c1C)-c1cccc(Cl)c1C2=O
Resp: inactive

Req: Repeat for the following compound: O=C(O)c1cc2ccccc2oc1=O
Resp: inactive

Req: Repeat for the following compound: CCN(CC)C(=S)N/N=C/c1ccccn1
Resp: active

Req: Repeat for the following compound: CC(=O)O[C@H]1/C(=C/c2ccncc2)C[C@H]2[C@@H]3CC=C4C[C@@H](N5CCCC5)CC[C@]4(C)[C@H]3CC[C@]12C
Resp: inactive

Req: Repeat for the following compound: N=C(N)CCNC(=O)C1CCC(N)=N1 (stereo unspecified)
Resp: inactive

Req: Repeat for the following compound: CC1(C)OC(CCC#N)CN1C(=O)OCc1ccccc1 (stereo unspecified)
Resp: inactive

Now, please, on to the next compound.
Req: Outcome logged for CN(C)/C(F)=P\C(F)(F)F (stereo unspecified) in this assay:
Resp: inactive

* * *

# Tested on: ACHN
# ASSAY_TEXT: NCI tumour cell line growth inhibition, 48 h
Active and inactive are the calls of the source. No stated cut-off is given here; in the data, active = GI50 up to about 1.1 µM and inactive = higher.
MEASURED_PROPERTY: GI50

Req: State the recorded GI50 for this entry: CCN(CC)CCCNc1ccc([N+](=O)[O-])c2nc3ccc(OC)cc3c(N)c12
Resp: > 6.67 µM (inactive)

---
Req: State the recorded GI50 for this entry: Nc1ccc2nc(-c3cccc(Cl)c3)cc(O)c2c1
Resp: 5.93 µM (inactive)

Req: Repeat for the following molecule: Cc1cc(N)c(C)c2c1[nH]c1ccc(O)cc12
Resp: > 100 µM (inactive)

* * *

# Test system: UO-31
# ASSAY_TEXT: NCI tumour cell line growth inhibition, 48 h
Activity calls are given as the source filed them. No stated cut-off is given here; in the data, active = GI50 up to about 1.1 µM and inactive = higher.
MEASURED_PROPERTY: GI50

// solved cases for GI50 follow
Req: State the recorded GI50 for this entry: CC(=O)C(I(OS(=O)(=O)c1ccc(C)cc1)c1ccccc1)=P(c1ccccc1)(c1ccccc1)c1ccccc1
Resp: > 100 µM (inactive)

Req: Repeat for the following compound: CN(C)/C=N\c1cc[nH]c(=O)n1
Resp: > 100 µM (inactive)

Req: Repeat for the following compound: CCOC(=O)c1cc(-c2ccn(C(C)=O)c2)c(-c2cc(C)co2)[nH]1
Resp: > 100 µM (inactive)

---
Req: State the recorded GI50 for this entry: COc1ccc(/C=C2\CCC(C)/C(=C\c3ccc(OC)c(OC)c3)C2=O)cc1OC (centres undefined)
Resp: 8.45 µM (inactive)

Req: Repeat for the following compound: C[C@@H]1C(=O)CC2C(C)(C)CCC[C@]2(C)[C@@]12CC[C@]1(C=COC1)O2 (some centres undefined)
Resp: 29.9 µM (inactive)

Req: Repeat for the following compound: Cn1c(=O)c2nc(CCNC(=O)c3ccccc3)[nH]c2n(C)c1=O
Resp: > 100 µM (inactive)

Req: Repeat for the following compound: CS(=O)(=O)OCCN(CCOS(C)(=O)=O)c1ccc(/C=N/c2ccc(-c3csc(Cc4ccccc4)n3)cc2)c(Cl)c1
Resp: 26.4 µM (inactive)

Req: Repeat for the following compound: C=CC1=C(C)/C(=C/C2=NC(=C\c3[nH]c(CC4NC(=O)C(C)/C4=C\C)c(C)c3CCC(=O)O)/C(CC(=O)O)=C2C)NC1=O (centres undefined)
Resp: > 100 µM (inactive)

Req: Repeat for the following compound: CC(OC(C)(C)C)[C@H](NC(=O)OC(C)(C)C)C(=O)O (some centres undefined)
Resp: > 100 µM (inactive)

* * *

# System: IGROV-1
# ASSAY_TEXT: NCI tumour cell line growth inhibition, 48 h
Active and inactive are the calls of the source. No stated cut-off is given here; in the data, active = GI50 up to about 1.1 µM and inactive = higher.
# GI50 annotations

Req: State the recorded GI50 for this entry: CN1CCc2c(sc3ncn(Nc4ccc(Cl)cc4)c(=N)c23)C1
Resp: > 100 µM (inactive)

Req: Repeat for the following compound: NS(=O)(=O)c1cc(S(N)(=O)=O)c(NC(=O)Nc2ccc(Cl)c(Cl)c2)c(Cl)c1Cl
Resp: > 100 µM (inactive)

* * *

# Test system: OVCAR-4
# ASSAY_TEXT: NCI tumour cell line growth inhibition, 48 h
Calls of active or inactive are those of the source. Cut-off read from the data, not from the text of the source: active = GI50 up to about 1.1 µM and inactive = higher.
MEASURED_PROPERTY: GI50

// solved cases for GI50 follow
Req: For the record Cc1ccc(NC(=O)/C(=N/NC(=O)C[N+](C)(C)C)c2nc3ccccc3nc2O)cc1 , what value of GI50 is listed for OVCAR-4?
Resp: > 100 µM (inactive)

Req: Repeat for the following compound: NC(=O)c1csc(C2O[C@@H](COP(=O)(O)OP(=O)(O)OC[C@H]3OC(n4cnc5c(N)ncnc54)[C@H](O)[C@@H]3O)[C@H](O)[C@@H]2O)n1 (stereo not given in full)
Resp: 73.3 µM (inactive)

Req: Repeat for the following compound: COC(=O)/C(C#N)=C(\Nc1ccccc1)N1CCOCC1
Resp: > 100 µM (inactive)

Req: Repeat for the following compound: COC(=O)c1c[nH]cc1CCc1c[nH]cc1C(=O)OC
Resp: > 100 µM (inactive)

Req: Repeat for the following compound: N=C(N)Nc1ccc(-c2ccc(NC(=N)N)cc2)cc1
Resp: 60.7 µM (inactive)

---
Req: For the record COC(=O)c1c(-c2cc(OC)c(OC)c(OC)c2)oc2ccccc2c1=O , what value of GI50 is listed for OVCAR-4?
Resp: 68.4 µM (inactive)

Req: Repeat for the following compound: NC(=O)C[S+]([O-])CC(N)C(=O)O (stereo not given)
Resp: > 100 µM (inactive)

Req: Repeat for the following compound: COc1cccc(/C=N/[N+](C)(C)C)c1O
Resp: > 10 µM (inactive)

Req: Repeat for the following compound: CC(=O)Oc1ccc2c(c1)C(=O)c1nc(C)c(C)nc1C2=O
Resp: 46.3 µM (inactive)

Req: Repeat for the following compound: CN(C)CN1C(=O)S/C(=C2\C(=O)N(CN(C)C)c3ccccc32)C1=O
Resp: 55.1 µM (inactive)
